Test system: MDA-N
Test: NCI tumour cell line growth inhibition, 48 h
The source made the active and inactive calls. Rule as the data show it: active = GI50 up to about 1.1 µM and inactive = higher.

compound	GI50
Cc1ccc(S(=O)(=O)N2CCNCCN(S(=O)(=O)c3ccc(C)cc3)CCNCC2)cc1	20.2 µM (inactive)
Cc1ccc2nc3ccccc3c(C3C4C(=O)N(c5ccc(Br)cc5Cl)C(=O)C4ON3C(C(N)=O)c3ccccc3)c2c1 (stereo not drawn)	6.9 µM (inactive)
CSCCCNC(=O)c1csc(-c2csc(CCNC(=O)CNC(=O)OC(C)(C)C)n2)n1	> 100 µM (inactive)

----------
Tested on: MDA-MB-231
Assay: NCI tumour cell line growth inhibition, 48 h
Calls of active or inactive are those of the source. Rule as the data show it: active = GI50 up to about 1.1 µM and inactive = higher.
The following compounds are shown together with reported GI50 values.
assay-readout: GI50

compound	value-reported
O=C(Nc1ccccc1)c1cc2ccccc2c(/N=N\c2cccc([N+](=O)[O-])c2)c1O	56.8 µM (inactive)
COc1ccc(-c2c(C(C)=O)c(-c3ccccc3)n(C3OC(CO)C(O)C(O)C3O)c(=S)c2C#N)cc1 (stereo unspecified)	> 100 µM (inactive)
CCOC(=O)/C(C#N)=C/c1ccc(SCc2ccco2)c([N+](=O)[O-])c1	> 100 µM (inactive)
CC(=O)OCCc1cc2ccccc2oc1=O	> 100 µM (inactive)
CN1c2ccccc2C(=O)NC12CCN(CCCC(=O)c1ccc(F)cc1)CC2	40.9 µM (inactive)
CC[N+](C)(CC)Cc1ccccc1[N+](=O)[O-]	72.8 µM (inactive)
NC(CCCCCCCCCCP(=O)(O)O)C(=O)O (stereo unspecified)	> 100 µM (inactive)
CC1CCC2N(C1)CC1C3(O)CC45OC6(O)C(O)CCC4(C)C6CCC5C3(O)CC(O)C1(O)C2(C)O (stereo unspecified)	> 100 µM (inactive)
O=C(Nc1ccccn1)/C(=C\C(=O)c1ccc(Cl)cc1)Nc1ccccc1	> 10 µM (inactive)
COc1ccc(/C=C/c2nsc(/C=C/c3ccc(OC)cc3)n2)cc1	> 100 µM (inactive)
CC(C)NC(=O)CN1CCN(C2=C(Cl)C(=O)c3c(O)ccc(O)c3C2=O)CC1	1.97 µM (inactive)

----------
Each entry below carries its recorded GI50.
System: SK-MEL-5
Assay: NCI tumour cell line growth inhibition, 48 h
Activity calls are given as the source filed them. No stated cut-off is given here; in the data, active = GI50 up to about 1.1 µM and inactive = higher.

compound	GI50
CC(C)(CN1CCCCC1)C(=O)CC(SCCS(=O)(=O)O)c1ccccc1 (configuration not stated)	16.3 µM (inactive)
CN(C)/C=N\c1nncc2[nH]nnc12	> 100 µM (inactive)
CC(=O)O[C@H]1C(=O)[C@@]2(C)C([C@H](OC(=O)c3ccccc3)[C@]3(O)C[C@H](OC(=O)[C@H](O)[C@@H](NC(=O)c4ccc(Cl)cc4)c4ccccc4)C(C)=C1C3(C)C)C1(OC(C)=O)CO[C@@H]1C[C@@H]2O (some centres not stated)	< 0.01 µM (active)
CN1c2ccccc2C(=O)NC12CCN(CCCC(=O)c1ccc(F)cc1)CC2	26.1 µM (inactive)
CCC(=O)Oc1ccc2c(c1)c(=O)c1c(NCCCN(C)C)ccc3nnn2c31	1.9 µM (inactive)
CC(=O)c1c2c(c3ccccc3c1O)O[C@@H]1OCC[C@H]21	> 100 µM (inactive)
CC(C)CCCC(C)C1CCC2C3CC([N+](=O)[O-])=C4CC(O)CCC4(C)C3CCC12C (configuration not stated)	> 10 µM (inactive)

----------
Tested on: NCI-H460
Experiment: NCI tumour cell line growth inhibition, 48 h
Active and inactive are the calls of the source. Rule as the data show it: active = GI50 up to about 1.1 µM and inactive = higher.
Possible outcomes: TRUE (active), FALSE (inactive)

compound	class-label
CCc1n[nH]c(=O)n1/N=C/c1ccc(/C=N/n2c(CC)n[nH]c2=O)cc1	FALSE
C=CCNC(=O)NCCCC(NC(C)=O)C(=O)NCc1ccccc1 (configuration not stated)	FALSE
Cc1ccc(/N=C2N=C(Cl)/C(=C\c3ccccc3)N\2)cc1	FALSE
O=c1[nH]nc(-c2ccccc2)c2[nH]c3c4ccccc4ccc3c12	TRUE
C=CCc1cccc(/C=N\N/C(N)=N/O)c1O	FALSE
CCn1c(CSc2nc(-c3ccccc3)c(-c3ccccc3)[nH]2)n[nH]c1=S	FALSE
O=c1[nH]c2ccccc2c2nc3ccccc3n12	FALSE
COc1ccc(OC)c(NC(=O)CCC/C(CC(=O)c2ccc(O)c(OC)c2)=N\NC(=O)C[N+](C)(C)C)c1	FALSE
CCOC(=O)CCc1c(C(=O)OCC)[nH]c(/C=C2\NC(=O)C(C)=C2CC)c1C	FALSE
Cc1ccc(S(=O)(=O)N/N=C2\CCC3(O)CC2(C)CCC2C3CC2(C)C)cc1 (configuration not stated)	FALSE
CC1OC(OC2C(O[C@H]3CC[C@@]4(C)C(=CC[C@H]5[C@@H]6C[C@@H]7O[C@]8(CC[C@@H](C)CO8)[C@@H](C)[C@@H]7[C@@]6(C)CC[C@@H]54)C3)OC(CO)C(O)C2O)C(O)C(O)C1O (some centres not stated)	TRUE
Cc1ccc(-c2cc(-c3ccco3)c(C#N)c(O)n2)cc1	FALSE

----------
# Lookup of reported GI50 keyed by entry
System: OVCAR-5
Assay: NCI tumour cell line growth inhibition, 48 h
Activity calls are given as the source filed them. Rule as the data show it: active = GI50 up to about 1.1 µM and inactive = higher.

compound	GI50
CCOC(=O)N1CC2(C(=O)OC)C=CC1C(C(=O)OC)C2 (stereo not drawn)	> 100 µM (inactive)
COc1cc(Br)c(/C=N/N=C(\N)NO)cc1OC	21.8 µM (inactive)
N#Cc1c(N)c2c(c(-c3ccccc3)c1-c1ccccc1)C(=O)N(Nc1ccccc1)C2=O	27 µM (inactive)
CC(c1ccccc1)n1cncc1C(=O)NN1CCN(C)CC1 (stereo not drawn)	> 10 µM (inactive)
CC1=C[C@H](O)[C@@]2(C)[C@@H]([C@@H]1C)[C@H]1CC[C@@H]3[C@@]4(C)CC[C@H](O)C(C)(C)[C@@H]4CC[C@@]3(C)[C@]1(C)C[C@@H]2O	15.6 µM (inactive)
CC(=O)OCC1OC(n2c(-c3cccs3)c3c(c(C#N)c2=S)-c2ccccc2CC3)C(OC(C)=O)C(OC(C)=O)C1OC(C)=O (stereo not drawn)	26.5 µM (inactive)
CCc1ccccc1NC(=O)C(=O)CC(=O)c1sc(Nc2ccccc2Cl)nc1C	> 100 µM (inactive)
COc1ccc(/C=C/C(=O)c2sc(-n3nc(-c4ccccc4)cc3-c3ccccc3)nc2C)cc1	> 10 µM (inactive)
CN(C)CCNC(=O)c1cccc2ccc(-c3ccc(O)cc3)nc12	1.71 µM (inactive)
Cc1cc(NS(=O)(=O)c2ccc(Nc3c4ccccc4nc4c(C(=O)Nc5ccc(S(=O)(=O)N=C(N)N)cc5)ccc(Cl)c34)cc2)no1	> 100 µM (inactive)
CC(=O)c1c2c(c3ccccc3c1O)O[C@@H]1OCC[C@H]21	> 100 µM (inactive)
Cc1ccc(OCC2OC(n3cnc4c(Cl)nc(Cl)nc43)CC2Oc2ccc(C)cc2)cc1 (stereo not drawn)	5.78 µM (inactive)
COc1cc(/C=C2\N=C(c3ccccc3)N(c3ccc(C(=O)c4ccccc4)cc3N3C(=O)/C(=C/c4cc(OC)c(OC)c(OC)c4)N=C3c3ccccc3)C2=O)cc(OC)c1OC	30.8 µM (inactive)

----------
Tested on: OVCAR-3
Assay: NCI tumour cell line growth inhibition, 48 h
Active and inactive are the calls of the source. Cut-off read from the data, not from the text of the source: active = GI50 up to about 1.1 µM and inactive = higher.

molecule	GI50
C[Si](C)(C)OC1c2[nH]c3ccccc3c2CN2C(=O)CCC12 (configuration not stated)	> 100 µM (inactive)
C=CCNC(=O)NCCCC(NC(C)=O)C(=O)NCc1ccccc1 (configuration not stated)	> 100 µM (inactive)
COc1cc(-c2nc3ccccn3c2/N=C/c2cc(Br)cc(Br)c2O)ccc1O	15.6 µM (inactive)
CCc1ccc2c(c1)CC1(C2)Cc2cc3c(cc2C1)C(=O)CC3 (configuration not stated)	17.3 µM (inactive)
O=c1c2sc3nc(NCCN4CCCCC4)ncc3c2ncn1-c1ccccc1	> 100 µM (inactive)
O=C1Oc2ccccc2C(=O)/C1=C\Nc1nc(-c2ccc(O)c(O)c2)cs1	2.29 µM (inactive)
C/C(=C\COP(=O)(O)OP(=O)(O)O)CCCCCCOCc1ccccc1	> 100 µM (inactive)

----------
System: EKVX
Assay: NCI tumour cell line growth inhibition, 48 h
Activity calls are given as the source filed them. No stated cut-off is given here; in the data, active = GI50 up to about 1.1 µM and inactive = higher.
Listed below: GI50 values for each entry.

compound	GI50
CCCCC1Cc2cc(O)ccc2-c2n1c1cc(O)ccc1[n+]2C.CCCCC1Cc2cc(O)ccc2-c2n1c1ccc(O)cc1[n+]2C (stereo not drawn)	0.476 µM (active)
O=C(O/N=C1/CCCC/C1=C\c1ccccc1)c1ccc(Cl)c(Cl)c1	38.3 µM (inactive)
O=C1c2ccccc2CC12Cc1ccc3c(c1C2)CCC3 (stereo not drawn)	16.9 µM (inactive)
C[C@@H]1[C@@H]2[C@@H](C=C3C4CCC5Cc6nc7c(nc6C[C@@]5(C)C4C[C@H](O)[C@]32CO)CC2CCC3C4=C[C@H]5O[C@@]6(OC(C)(CO)C[C@@H]6O)[C@H](C)[C@@]5(O)[C@]4(C)[C@@H](O)CC3[C@]2(C)C7)O[C@]12CCC(C)(C)O2 (stereo partly drawn)	0.0766 µM (active)
Cc1[nH]n(-c2ncc(C#N)c(=O)[nH]2)c(=O)c1CCO	> 100 µM (inactive)
CC(=O)Nc1nc2c(=O)c3ccccc3sc2s1	> 100 µM (inactive)
Cc1cc(O)c(C(C)C)cc1/N=C/c1ccccc1O	7.87 µM (inactive)
O=[N+]([O-])c1cc(Cl)cnc1Br	4.19 µM (inactive)
CN1CC[C@@]2(c3cccc(O)c3)CC(=O)/C(=C/c3ccc(Cl)c(Cl)c3)[C@H]1C2	8.79 µM (inactive)
COC(=O)CCCC(=O)O	> 100 µM (inactive)
COC1(OC)CCCc2c1no[n+]2[O-]	> 100 µM (inactive)
COc1cc(CNc2ccc(SC)cc2)cc(OC)c1OC	27.1 µM (inactive)
O=C(c1nc2ccc(Cl)cc2[nH]c1=O)C(O)c1ccco1 (stereo not drawn)	> 100 µM (inactive)
